# experimental system: Serine Palmitoyl Transferase (SPT); microsomes from HEK 293 cells stably transfected with human LCB2 subunit of SPT (Homo sapiens, UniProt O15270)
# Construct: expressed in transfected cells; host or cells: HEK 293 cells stably transfected with LCB2; microsomal fraction
# Sequence (O15270 1-562): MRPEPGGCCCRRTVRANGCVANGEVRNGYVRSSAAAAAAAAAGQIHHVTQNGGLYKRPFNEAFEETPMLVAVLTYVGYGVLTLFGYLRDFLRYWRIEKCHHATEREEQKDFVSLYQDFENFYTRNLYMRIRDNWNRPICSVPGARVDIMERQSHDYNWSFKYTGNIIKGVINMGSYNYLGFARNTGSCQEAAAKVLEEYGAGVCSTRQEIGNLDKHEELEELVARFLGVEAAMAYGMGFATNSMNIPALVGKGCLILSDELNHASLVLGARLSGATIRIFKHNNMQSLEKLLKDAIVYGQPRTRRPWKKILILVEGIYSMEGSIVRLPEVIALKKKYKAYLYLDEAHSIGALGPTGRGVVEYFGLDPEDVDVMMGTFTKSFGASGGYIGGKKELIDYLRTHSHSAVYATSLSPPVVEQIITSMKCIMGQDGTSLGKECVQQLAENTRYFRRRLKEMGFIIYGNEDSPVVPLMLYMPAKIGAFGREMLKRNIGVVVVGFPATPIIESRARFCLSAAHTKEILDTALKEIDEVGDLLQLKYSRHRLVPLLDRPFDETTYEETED
# Sequence (O15269 1-473 partner): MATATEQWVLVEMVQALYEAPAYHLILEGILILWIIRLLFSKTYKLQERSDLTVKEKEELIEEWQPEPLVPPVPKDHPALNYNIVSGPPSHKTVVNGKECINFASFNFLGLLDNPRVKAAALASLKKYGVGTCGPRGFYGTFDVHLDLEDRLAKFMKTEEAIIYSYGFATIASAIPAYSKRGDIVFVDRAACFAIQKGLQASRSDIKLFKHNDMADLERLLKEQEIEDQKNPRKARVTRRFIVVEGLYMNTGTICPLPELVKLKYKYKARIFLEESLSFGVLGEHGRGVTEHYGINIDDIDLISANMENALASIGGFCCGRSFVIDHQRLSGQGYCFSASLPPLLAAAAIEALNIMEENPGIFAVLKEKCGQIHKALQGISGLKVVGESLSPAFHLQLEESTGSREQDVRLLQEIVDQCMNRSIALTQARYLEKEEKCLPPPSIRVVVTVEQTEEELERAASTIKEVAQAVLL
# Sequence (Q969W0 1-71 partner): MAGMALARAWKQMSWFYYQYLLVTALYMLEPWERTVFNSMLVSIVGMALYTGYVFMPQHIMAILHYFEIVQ
# assay procedure: SPT flashplate assay
# Assay type: biochemical
# condition description: SPTISF IC50 (nM)
Where a name gives a salt, the structure may show the parent alone.
Hi there, I'd appreciate the recorded IC50 for every entry that follows.
Answers are plain numbers, in nM.

compound	IC50 [nM]
O=C(CN1CCC(n2c(=O)[nH]c3cc(-c4noc(=O)[nH]4)ccc32)CC1)c1ccc(Cl)cc1	1.68

Value sought for every listed compound: IC50.
1. CCc1ccc(C(=O)CN2CCC(n3c(=O)[nH]c4cc(C(=O)NC)c(F)cc43)CC2)cc1
2. CNC(=O)c1ccc2c(c1)CC(=O)N2C1CCN(CC(=O)N2CCC(C)(C)CC2)CC1
3. CNC(=O)c1ccc2c(c1)CC(=O)N2C1CCN(CC(=O)N2C[C@H]3CCC[C@H]3C2)CC1 [Example 20, hydrogen sulfate]

1. 6.2
2. 8.4
3. 11.4

Could you report IC50 for every entry in the following list?
1. CNC(=O)c1cc2c(cc1F)N(C1CCN(CC(=O)N3C[C@H]4CCC[C@H]4C3)CC1)C(=O)C2
2. CNC(=O)c1ccc2c(c1)CC(=O)N2C1CCN(CC(=O)N2CCC(C)(OC)CC2)CC1
3. CNC(=O)c1ccc2c(c1)CC(=O)N2C1CCN(CC(=O)N2CCC3(CC2)CC3)CC1
4. CNC(=O)c1cc2c(cc1F)N(C1CCN(CC(=O)N3CCC(C)(C)CC3)CC1)C(=O)C2

1. 14.6
2. 18.7
3. 2.64
4. 10.6

----------
# experimental system: Serine Palmitoyl Transferase (SPT); microsomes from HEK 293 cells stably transfected with human LCB2 subunit of SPT (Homo sapiens, UniProt O15270)
# Construct: expressed in transfected cells; host or cells: HEK 293 cells stably transfected with LCB2; microsomal fraction
# assay procedure: SPT flashplate assay
# Format: biochemical
# condition description: microsomes of HEK 293 LCB2 cells, 3H-serine and palmitoyl CoA, phospholipid coated flashplate, 18-24 hours at room temperature; read-out: SPTISF IC50
pIC50: −log10 of the molar value.
// false strictly below 7 in pIC50; true otherwise

Below are worked cases with known answers.
compound	category
CNC(=O)c1cc2[nH]c(=O)n(C3CCN(CC(=O)N4CC5CCC(CC5)C4)CC3)c2cc1F	true
CNC(=O)c1cc2[nH]c(=O)n(C3CCN(CC(=O)N4C[C@H]5CCC[C@H]5C4)CC3)c2cc1F	true
CNC(=O)c1cc2[nH]c(=O)n(C3CCN(CC(=O)C4(C)CCCCC4)CC3)c2cc1F	true
CNC(=O)c1cc2[nH]c(=O)n(C3CCN(CC(=O)C4CCC(C)CC4)CC3)c2cc1F (centres unmarked)	true

Quick check: does `CNC(=O)c1cc2[nH]c(=O)n(C3CCN(CC(=O)N4CCC(C)(OC)CC4)CC3)c2cc1F` have pIC50 greater than or equal to 7?
true

Does the compound `C=C1CCN(C(=O)CN2CCC(n3c(=O)[nH]c4cc(C(=O)NC)c(F)cc43)CC2)CC1` have recorded pIC50 that is 7 or more?
true

Assess whether reported pIC50 for CC1CCC(C(=O)CN2CCC(n3c(=O)[nH]c4cc(S(C)(=O)=O)ccc43)CC2)CC1 (centres unmarked) sits at 7 or higher.
true

Could you verify whether the entry `CNC(=O)c1cc2[nH]c(=O)n(C3CCN(CC(=O)N4CCC(C)(C)CC4)CC3)c2cc1F` shows pIC50 of no less than 7?
true

Please check the record CNC(=O)c1cc2[nH]c(=O)n(C3CCN(CC(=O)C4CCC(C)(OC)CC4)CC3)c2cc1F (centres unmarked) and state if its pIC50 is at or above 7.
true

Determine whether this compound has pIC50 no lower than 7: `CCC1(C)CCN(C(=O)CN2CCC(n3c(=O)[nH]c4cc(C(=O)NC)c(F)cc43)CC2)CC1`
true

Entry CNC(=O)c1cc2[nH]c(=O)n(C3CCN(CC(=O)C4CCC(C(F)(F)F)CC4)CC3)c2cc1F (centres unmarked) : is its pIC50 no less than 7?
true

Can COC1CCC(C(=O)CN2CCC(n3c(=O)[nH]c4cc(S(C)(=O)=O)ccc43)CC2)CC1 (centres unmarked) be said to have pIC50 at or above 7?
false

For this compound, is measured pIC50 7 or higher? `CC1(C(=O)CN2CCC(n3c(=O)[nH]c4cc(S(C)(=O)=O)ccc43)CC2)CCCCC1`
false

hey, is pIC50 for this one >= 7? CS(=O)(=O)c1ccc2c(c1)[nH]c(=O)n2C1CCN(CC(=O)C2CCC(C(F)(F)F)CC2)CC1 (centres unmarked)
true

Confirm if pIC50 reported for the compound `CNC(=O)c1cc2[nH]c(=O)n(C3CCN(CC(=O)N4CCC5(CC4)CC5)CC3)c2cc1F` is 7 or above.
true

----------
# experimental system: Serine Palmitoyl Transferase (SPT); microsomes from HEK 293 cells stably transfected with human LCB2 subunit of SPT (Homo sapiens, UniProt O15270)
# Construct: expressed in transfected cells; host or cells: HEK 293 cells stably transfected with LCB2; microsomal fraction
# Sequence (O15270 1-562): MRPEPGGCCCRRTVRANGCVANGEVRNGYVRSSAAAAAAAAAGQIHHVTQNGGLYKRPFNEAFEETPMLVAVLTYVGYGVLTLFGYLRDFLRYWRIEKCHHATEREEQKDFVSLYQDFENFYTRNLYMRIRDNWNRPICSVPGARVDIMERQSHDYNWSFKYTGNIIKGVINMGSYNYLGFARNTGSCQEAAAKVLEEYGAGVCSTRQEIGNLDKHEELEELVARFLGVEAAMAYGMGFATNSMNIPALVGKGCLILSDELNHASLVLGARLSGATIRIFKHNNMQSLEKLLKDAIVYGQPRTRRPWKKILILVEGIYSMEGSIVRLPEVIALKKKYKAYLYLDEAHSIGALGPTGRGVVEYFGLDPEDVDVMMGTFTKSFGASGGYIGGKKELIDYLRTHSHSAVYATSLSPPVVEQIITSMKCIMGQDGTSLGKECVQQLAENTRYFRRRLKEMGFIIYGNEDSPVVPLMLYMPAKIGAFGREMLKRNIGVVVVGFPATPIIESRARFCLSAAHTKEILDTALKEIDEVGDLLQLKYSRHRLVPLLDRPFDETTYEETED
# Sequence (O15269 1-473 partner): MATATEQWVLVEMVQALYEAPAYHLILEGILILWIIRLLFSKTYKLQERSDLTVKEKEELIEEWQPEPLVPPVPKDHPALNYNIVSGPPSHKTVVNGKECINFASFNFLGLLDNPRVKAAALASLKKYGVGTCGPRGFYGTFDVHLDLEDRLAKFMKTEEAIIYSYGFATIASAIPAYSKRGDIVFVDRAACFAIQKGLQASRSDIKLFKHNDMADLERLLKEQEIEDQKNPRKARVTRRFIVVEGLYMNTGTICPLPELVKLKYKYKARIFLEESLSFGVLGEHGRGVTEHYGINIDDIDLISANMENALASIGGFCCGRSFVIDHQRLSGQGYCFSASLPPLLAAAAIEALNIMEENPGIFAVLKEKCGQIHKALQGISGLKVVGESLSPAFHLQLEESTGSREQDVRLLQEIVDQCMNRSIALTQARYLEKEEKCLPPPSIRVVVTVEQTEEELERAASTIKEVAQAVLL
# Sequence (Q969W0 1-71 partner): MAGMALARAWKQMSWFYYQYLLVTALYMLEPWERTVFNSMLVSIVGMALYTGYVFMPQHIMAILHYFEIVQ
# assay procedure: SPT flashplate assay
# Assay type: biochemical
# condition description: microsomes of HEK 293 LCB2 cells, 3H-serine and palmitoyl CoA, phospholipid coated flashplate, 18-24 hours at room temperature; read-out: SPTISF IC50
pIC50: −log10 of the molar value. Counter-ions that a name gives are not always drawn.
Outcome: 1 (yes) for pIC50 of at least 7; 0 (no) for anything lower.

compound	category
CNC(=O)c1cc2[nH]c(=O)n(C3CC4CCC(C3)N4CC(=O)N3CCC(C)(OC)CC3)c2cc1F (centres unmarked)	0 (no)
CS(=O)(=O)c1ccc2c(c1)[nH]c(=O)n2C1CCN(CC(=O)C2CCCCC2)CC1	0 (no)
CC1(C)CCN(C(=O)CN2CCC(n3c(=O)[nH]c4cc(S(C)(=O)=O)ccc43)CC2)CC1 [Example 40, hydrochloride]	1 (yes)
COC1(C)CCC(C(=O)CN2CCC(n3c(=O)[nH]c4cc(S(C)(=O)=O)ccc43)CC2)CC1 (centres unmarked)	0 (no)
CCNC(=O)c1ccc2c(c1)n(C)c(=O)n2C1CCN(CC(=O)N2CCC(C)(C)CC2)CC1	1 (yes)
CNC(=O)c1cc2[nH]c(=O)n(C3CCN(CC(=O)C4CCC(F)(F)CC4)CC3)c2cc1F	1 (yes)
CC(C)(C)C1CCC(C(=O)CN2CCC(n3c(=O)[nH]c4cc(S(C)(=O)=O)ccc43)CC2)CC1 (centres unmarked)	0 (no)

Here is the next item to consider.
Could you please find out whether CC1(C)CCN(C(=O)CN2CCC(n3c(=O)[nH]c4cc(S(C)(=O)=O)ccc43)CC2)CC1 [Example 39] has pIC50 that meets 7 or exceeds it?
1 (yes)
